assayedSystem: T1, Human CD3εδ Fc heterodimer (Hu CD3ε Fc + CD3δ Fc-HIS) (human, UniProt P07766 22-126; P04234 22-100)
T1 construct: range 22-126;range 22-100; Made in HEK 293 cells with a heterologous signal peptide; also called Hu CD3εδ-Fc; CD3εδ Fc-HIS heterodimer; not shown: Fc; Fc followed by HIS tag
T1 sequence (P07766 22-126, stated change not applied, form in doubt, chain 1 of 2): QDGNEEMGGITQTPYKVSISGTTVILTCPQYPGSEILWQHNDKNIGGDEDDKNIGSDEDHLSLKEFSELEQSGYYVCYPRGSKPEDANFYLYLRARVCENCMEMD
T1 sequence (P04234 22-100, stated change not applied, form in doubt, chain 2 of 2): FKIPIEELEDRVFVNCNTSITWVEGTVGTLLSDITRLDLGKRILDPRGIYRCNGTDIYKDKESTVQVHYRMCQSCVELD
assayOverview: BLI (Octet), Fab monovalent, pH 7.4
Description: ForteBio KD measurements (Biolayer interferometry; BLI). […] Sensors were equilibrated off-line in assay buffer for 30 min and then monitored on-line for 60 seconds for baseline establishment. […] Kinetics were analyzed using the 1:1 binding model. For measuring binding at different pHs, measurements were performed at pre-determined pHs (e.g., pH 7.4 and pH 6.0). […]
recordedEndpoint: Kd (nM)
Write the value in nM as a bare number.

Use the examples below as a reference point.
binder	recordedEndpoint	observed
Antibody No. V010 (ADI-70327) Fab (Fab, V domains shown, Fab by papain digestion of the IgG1) VH: QVQLVQSGAEVKKPGASVKVSCKASGFDIKDYYMHWVRQAPGQRLEWIGWIELENDDTVYDAKFQGRVTITRDTSASTAYMELSSLRSEDTAVYYCARDAYGRYFYDVWGQGTLVTVSS VL: DIVMSQSPDSLAVSLGERATINCKSSQSLLNARTGKNYLAWYQQKPGQPPKLLIYWASTRSSGVPDRFSGSGSGTDFTLTISSLQAEDVAVYYCVQSYFRRTFGGGTKVEIK	Kd	4.1
Antibody No. A001 (ADI-26906) Fab (Fab, V domains shown, Fab by papain digestion of the IgG1) VH: QVQLVQSGAEVKKPGASVKVSCKASGFNIKDYYMHWVRQAPGQRLEWMGWIDLENANTIYDAKFQGRVTITRDTSASTAYMELSSLRSEDTAVYYCARDAYGRYFYDVWGQGTLVTVSS VL: DIVMTQSPDSLAVSLGERATINCKSSQSLLNARTGKNYLAWYQQKPGQPPKLLIYWASTRESGVPDRFSGSGSGTDFTLTISSLQAEDVAVYYCKQSYSRRTFGGGTKVEIK	Kd	6

Entry under test: Antibody No. V018 (ADI-76361) Fab (Fab, V domains shown, Fab by papain digestion of the IgG1) VH: QVQLVQSGAEVKKPGASVKVSCKASGFDIKDYYMHWVRQAPGQRLEWMGWIDLEEGNTIYDAKFQGRVTITRDTSASTAYMELSSLRSEDTAVYYCARDAYGRYFYDVWGQGTLVTVSS VL: DIVMTQSPDSLAVSLGERATINCKSSQSLLNARTGKNYLAWYQQKPGQPPKLLIYWASTRESGVPDRFSGSGSGTDFTLTISSLQAEDVAVYYCKQSYSLRTFGGGTKVEIK . Its Kd was 37
